Target: T1, human IL-1α (human, UniProt P01583 113-271)
T1 sequence (looked up): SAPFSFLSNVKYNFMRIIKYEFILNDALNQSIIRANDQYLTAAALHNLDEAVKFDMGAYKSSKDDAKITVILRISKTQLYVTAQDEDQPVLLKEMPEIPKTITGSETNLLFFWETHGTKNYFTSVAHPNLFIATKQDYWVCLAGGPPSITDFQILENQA
Test: cell-based or functional assay
propertyName: IL-1α IC50 (nM)
Please state the figure in nM; there is no need to write the unit.

| binder | IL-1α IC50 [nM] |
| --- | --- |
| ABT2-65-8/ABT1-141 hu IgG1/K wt (bispecific antibody, V domains shown) VH: EVQLLESGGGLVQPGGSLRLSCAASGFTFEDYQMGWVRQAPGKGLEWVSSISAMGNRTYYADSVKGRFTISRDDSKNTLYLQMNSLRAEDTAVYYCAQNLVRMDSRRWMFDYWGQGTLVTVSS VL: DIQMTQSPSSLSASVGDRVTITCRASQWIQKQLAWYQQKPGKAPKLLIYSSSYLQSGVPRFSGSGSGTDFTLTISSLQPEDFATYYCQQHLRVPFTFGQGTKVEIKR | 450 |

-- ask Which IL-1α IC50 value belongs to ABT2-65-17/ABT1-141 hu IgG1/K wt (bispecific antibody, V domains shown) VH: EVQLLESGGGLVQPGGSLRLSCVASGFTFEDYQMGWVRQAPGKGLEWVSSISAMGNRTYYADSVKGRFTISRDDSKNTLYLQMNSLRAEDTAVYYCAQNLVRLGRSRWMFDYWGQGTLVTVSS VL: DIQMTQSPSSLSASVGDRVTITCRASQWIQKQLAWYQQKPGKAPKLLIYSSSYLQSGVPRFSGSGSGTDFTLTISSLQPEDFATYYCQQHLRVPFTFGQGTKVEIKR ?
-- reply 70
